Target: MAP kinase-activated protein kinase 5 (Homo sapiens) (UniProt Q8IW41)
Sequence (Q8IW41 whole entry): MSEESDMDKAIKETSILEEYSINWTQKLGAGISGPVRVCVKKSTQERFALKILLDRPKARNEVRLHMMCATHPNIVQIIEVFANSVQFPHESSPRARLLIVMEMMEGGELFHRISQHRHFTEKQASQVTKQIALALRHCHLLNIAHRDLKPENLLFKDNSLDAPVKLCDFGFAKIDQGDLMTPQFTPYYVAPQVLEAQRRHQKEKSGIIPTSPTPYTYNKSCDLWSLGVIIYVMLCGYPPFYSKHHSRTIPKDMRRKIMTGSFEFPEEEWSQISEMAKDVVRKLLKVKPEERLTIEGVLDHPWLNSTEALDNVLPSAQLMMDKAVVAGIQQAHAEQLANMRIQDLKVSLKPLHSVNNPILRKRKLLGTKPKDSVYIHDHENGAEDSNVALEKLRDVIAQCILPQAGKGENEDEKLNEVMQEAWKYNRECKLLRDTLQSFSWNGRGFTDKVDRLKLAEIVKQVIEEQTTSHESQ
Test: Inhibition of PRAK1 at 30 uM by microfluidic mobility shift assay
VALUE_KIND: inhibition (%)

Known inhibition results, listed for orientation:
>>> numeric_readout("CC(=O)Nc1nn(C)c2cc(-c3ccccc3)[nH]c(=O)c12")
3
>>> numeric_readout("COc1ccccc1-c1cc2nn(-c3ccccc3)c(N)c2c(=O)[nH]1")
6
>>> numeric_readout("Cc1cc2[nH]nc(N)c2c(N2CCCCC2)n1")
10
>>> numeric_readout("Cn1nc(N)c2cnc(-c3ccccc3)cc21")
5
>>> numeric_readout("Nc1n[nH]c2cc(-c3cccnc3)[nH]c(=O)c12")
12
>>> numeric_readout("Cc1cc2c(c(N)nn2C)c(N2CC[C@H](O)C2)n1")
1
>>> numeric_readout("Cc1cc2[nH]nc(N)c2c(N2CCOCC2)n1")
5
>>> numeric_readout("Cc1cc2c(c(N)nn2C)c(N2CCCCC2)n1")
17

P: COc1ccc(S(=O)(=O)Nc2nn(C)c3cc(C)[nH]c(=O)c23)c(OC)c1
Q: Cc1cc2[nH]nc(N)c2c(=O)[nH]1
R: Cc1cc2nn(-c3ccccc3)c(N)c2c(=O)[nH]1
S: Nc1c2c(=O)[nH]c(-c3ccccc3)cc2nn1-c1ccccn1
Hey, quick one: sort these by inhibition, largest value first please. Write the labels, ordered according to the request.
Q, R, P, S
(Q: 8%, R: 5%, P: 1%, S: -1%)

a: Cc1cc2[nH]ncc2c(=O)[nH]1
b: Cc1cc2nn(-c3ccccc3)c(N)c2c(N2CCCCC2)n1
c: Cc1cc2nc(N)nc(N)c2c(=O)[nH]1
d: Cc1cc2nc(-c3ccccc3)nc(N)c2c(=O)[nH]1
Form: Sort by [inhibition] Order [ ascending ] Give the labels in the order requested.
a, c, d, b

a: COc1ccc(-c2cc3nn(-c4ccccc4)c(N)c3c(=O)[nH]2)cc1
b: CC(C)(C)c1cc2[nH]nc(N)c2c(=O)[nH]1
Of the pair a and b , name the member with the lesser recorded inhibition. To answer, give the label that identifies your chosen option.
b
(b: 1%, a: 12%)

P: COCCNc1nc(-c2ccccc2)cc2c1c(N)nn2C
Q: Nc1c2c(=O)[nH]c(-c3ccccc3)cc2nn1-c1ccccc1
Select the item with the higher value of inhibition from the options P and Q listed. Mark your selection by writing its label.
Q
(Q: 22%, P: 1%)

A: COc1ccc(-c2cc3c(c(N)nn3C)c(=O)[nH]2)cc1
B: CN1CCN(c2ccc(-c3cc4c(c(N)nn4C)c(=O)[nH]3)cc2)CC1
C: Cc1cc2c(c(N)nn2C)c(N2CCOCC2)n1
D: Cn1nc(N)c2c(=O)[nH]c(-c3ccccc3)cc21
Rank the 4 compounds: largest inhibition first, smallest last. Return the labels ranked in the requested order, please.
B, A, D, C

P: COc1ccc(-c2c(C)[nH]c(=O)c3c(N)nn(C)c23)cc1
Q: Cc1cc2c(c(N)nn2C)c(=O)[nH]1
R: COCCNc1nc(C)cc2nn(-c3ccccc3)c(N)c12
S: Cc1nc(N)c2c(=O)[nH]c(C)cc2n1
Ascending by inhibition, please. State the ranking by listing the labels in the requested order.
S, R, Q, P
(S: 1%, R: 2%, Q: 5%, P: 13%)

I: Cc1cc2c(c(NC(=O)Nc3ccccc3)nn2C)c(=O)[nH]1
II: COc1ccc(-c2cc3[nH]nc(N)c3c(=O)[nH]2)cc1
III: Nc1n[nH]c2cc(-c3ccncc3)[nH]c(=O)c12
Endpoint returns the given compounds ordered by ascending inhibition. A ranking is expressed here by listing the labels in the requested order.
I, II, III

a: COC(=O)CCc1c(C)[nH]c(=O)c2c(N)nn(C)c12
b: Cc1[nH]c(=O)c2c(N)n(-c3ccccc3)nc2c1-c1ccccc1
Problem: Given the entries a and b , determine which has the lower reported inhibition. Give the label of your selection.
a
(a: 2%, b: 6%)

----------
Molecular target: Aurora kinase A (Homo sapiens)
Test: Inhibition of AurA at 30 uM by microfluidic mobility shift assay
VALUE_KIND: inhibition (%)

>>> numeric_readout("CC(=O)Nc1nn(C)c2cc(-c3ccc(N4CCN(C)CC4)cc3)[nH]c(=O)c12")
15

I: Cn1nc(N)c2c(=O)[nH]c(-c3ccccc3)cc21
II: Nc1c2cnc(-c3ccccc3)cc2nn1-c1ccccc1
// compare: I vs II , metric inhibition, want the smaller Answer = label.
II

1: CC(=O)Nc1nn(C)c2cc(-c3ccccc3)[nH]c(=O)c12
2: Cc1cc2[nH]nc(N)c2c(N2CCCCC2)n1
3: Cc1cc2c(c(N)nn2C)c(N2CCCCC2)n1
4: Nc1n[nH]c2cc(CC3CCNCC3)[nH]c(=O)c12
Falling order of inhibition, please. Form entry: labels listed in requested order.
2, 3, 4, 1
(2: 84%, 3: 41%, 4: 5%, 1: 2%)

----------
Target: Proto-oncogene tyrosine-protein kinase Src (Homo sapiens, UniProt P12931)
Sequence (P12931 2-536 limits assumed): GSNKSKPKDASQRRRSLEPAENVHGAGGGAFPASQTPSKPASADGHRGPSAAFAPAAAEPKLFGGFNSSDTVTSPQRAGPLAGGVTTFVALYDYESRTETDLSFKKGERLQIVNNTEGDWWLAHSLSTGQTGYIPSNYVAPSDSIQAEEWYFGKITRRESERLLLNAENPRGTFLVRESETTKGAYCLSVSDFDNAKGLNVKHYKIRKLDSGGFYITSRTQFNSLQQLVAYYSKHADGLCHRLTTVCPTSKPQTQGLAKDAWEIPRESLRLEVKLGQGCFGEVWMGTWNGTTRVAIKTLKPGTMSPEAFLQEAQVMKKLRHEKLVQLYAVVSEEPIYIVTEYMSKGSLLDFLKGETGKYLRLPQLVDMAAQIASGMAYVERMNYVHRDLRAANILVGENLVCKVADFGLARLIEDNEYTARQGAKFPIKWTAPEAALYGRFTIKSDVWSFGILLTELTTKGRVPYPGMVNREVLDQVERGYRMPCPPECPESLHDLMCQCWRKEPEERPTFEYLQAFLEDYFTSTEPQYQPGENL
Assay: Inhibition of SRC at 30 uM by microfluidic mobility shift assay
VALUE_KIND: inhibition (%)

Use the examples below as a reference point.
>>> numeric_readout("Cc1cc2nc(N)nc(N)c2c(=O)[nH]1")
12
>>> numeric_readout("COc1ccc(-c2cc3c(c(N)nn3C)c(=O)[nH]2)cc1")
62

a: Cn1nc(N)c2c(=O)[nH]c(-c3ccccc3)cc21
b: COc1ccc(-c2cc3nn(-c4ccccc4)c(N)c3c(=O)[nH]2)cc1
c: CC(C)(C)c1cc2nn(-c3ccccc3)c(N)c2c(=O)[nH]1
d: CC(=O)Nc1nn(C)c2cc(-c3ccccc3)[nH]c(=O)c12
e: COc1cccc(-c2cc3[nH]nc(N)c3c(=O)[nH]2)c1
Please list these compounds in decreasing order of inhibition. Quick reminder: the answer is the labels in the order asked.
b, e, a, d, c
(b: 89%, e: 62%, a: 32%, d: 12%, c: 7%)

1: COc1cccc(-c2cc3c(c(N)nn3C)c(=O)[nH]2)c1
2: Cc1cc2c(c(N)nn2C)c(N2CCOCC2)n1
3: Cc1cc2c(cn1)c(N)nn2C
Please order the records by their reported inhibition, lowest number first. // list labels; follow requested order
3, 2, 1

1: COC(=O)CCc1c(C)[nH]c(=O)c2c(N)nn(C)c12
2: Nc1n[nH]c2cc(-c3ccncc3)[nH]c(=O)c12
Consider entries 1 and 2 . Which has the numerically lower inhibition? Refer to your chosen item by its label in the answer.
1
(1: 13%, 2: 46%)

----------
Target: Tyrosine-protein kinase ABL1 (Homo sapiens, UniProt P00519)
Sequence (P00519 whole entry): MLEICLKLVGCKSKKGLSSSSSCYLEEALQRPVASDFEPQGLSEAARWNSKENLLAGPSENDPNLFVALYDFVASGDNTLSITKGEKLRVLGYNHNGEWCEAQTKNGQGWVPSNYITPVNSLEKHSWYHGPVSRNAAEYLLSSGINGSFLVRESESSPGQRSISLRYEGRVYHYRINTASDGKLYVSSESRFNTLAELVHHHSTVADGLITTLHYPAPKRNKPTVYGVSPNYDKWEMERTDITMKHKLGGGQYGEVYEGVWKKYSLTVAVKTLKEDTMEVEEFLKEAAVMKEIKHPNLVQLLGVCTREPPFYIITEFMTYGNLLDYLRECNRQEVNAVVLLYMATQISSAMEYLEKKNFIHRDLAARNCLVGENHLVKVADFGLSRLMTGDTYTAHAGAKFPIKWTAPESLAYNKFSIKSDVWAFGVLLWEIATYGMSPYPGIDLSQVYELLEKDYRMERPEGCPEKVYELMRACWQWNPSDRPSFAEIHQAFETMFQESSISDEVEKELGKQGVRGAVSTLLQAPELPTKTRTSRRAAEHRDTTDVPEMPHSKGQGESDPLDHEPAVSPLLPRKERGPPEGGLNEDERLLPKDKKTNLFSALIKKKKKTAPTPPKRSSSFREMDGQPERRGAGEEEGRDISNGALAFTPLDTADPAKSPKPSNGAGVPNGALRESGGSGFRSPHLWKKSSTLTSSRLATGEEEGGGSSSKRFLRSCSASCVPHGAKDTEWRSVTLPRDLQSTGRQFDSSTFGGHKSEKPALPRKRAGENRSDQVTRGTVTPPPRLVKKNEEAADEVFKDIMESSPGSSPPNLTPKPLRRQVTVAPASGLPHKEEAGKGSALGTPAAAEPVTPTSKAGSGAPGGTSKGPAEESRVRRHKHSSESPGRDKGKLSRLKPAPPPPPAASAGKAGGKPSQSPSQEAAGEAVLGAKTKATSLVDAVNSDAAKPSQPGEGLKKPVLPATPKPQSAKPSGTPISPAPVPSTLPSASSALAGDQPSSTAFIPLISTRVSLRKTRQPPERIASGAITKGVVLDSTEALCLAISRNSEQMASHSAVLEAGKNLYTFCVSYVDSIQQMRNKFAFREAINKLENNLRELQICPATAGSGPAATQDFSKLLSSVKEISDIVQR
Assay: Inhibition of ABL at 30 uM by microfluidic mobility shift assay
VALUE_KIND: inhibition (%)

>>> numeric_readout("COCCNc1nc(C)cc2nn(-c3ccccc3)c(N)c12")
4
>>> numeric_readout("Nc1n[nH]c2cc(-c3cccnc3)[nH]c(=O)c12")
37
>>> numeric_readout("COc1ccc(S(=O)(=O)Nc2nn(C)c3cc(C)[nH]c(=O)c23)c(OC)c1")
3
>>> numeric_readout("Nc1n[nH]c2cc(-c3ccc(N4CCOCC4)cc3)[nH]c(=O)c12")
61
>>> numeric_readout("Cc1cc2c(c(N)nn2C)c(N2CCOCC2)n1")
15
>>> numeric_readout("COC(=O)CCc1c(C)[nH]c(=O)c2c(N)nn(C)c12")
11
>>> numeric_readout("Cc1cc2nn(-c3ccccc3)c(N)c2c(N2CCCCC2)n1")
7
>>> numeric_readout("Cc1[nH]c(=O)c2c(N)n(-c3ccccc3)nc2c1-c1ccccc1")
42

a: Cc1cc2c(c(NS(C)(=O)=O)nn2C)c(=O)[nH]1
b: CC(=O)Nc1nn(C)c2cc(-c3ccc(N4CCN(C)CC4)cc3)[nH]c(=O)c12
// returns a or b , whichever has the lower inhibition I would appreciate it if you answered with the label of your choice.
a

a: CN1CCN(c2ccc(-c3cc4c(c(N)nn4C)c(=O)[nH]3)cc2)CC1
b: Cc1cc2nc(N)nc(N)c2c(=O)[nH]1
Choose between a and b : whose measured inhibition value is numerically larger? # answer = label of selected item
a

----------
Molecular target: Ribosomal protein S6 kinase alpha-5 (Homo sapiens) (UniProt O75582)
Sequence (O75582 whole entry, looked up): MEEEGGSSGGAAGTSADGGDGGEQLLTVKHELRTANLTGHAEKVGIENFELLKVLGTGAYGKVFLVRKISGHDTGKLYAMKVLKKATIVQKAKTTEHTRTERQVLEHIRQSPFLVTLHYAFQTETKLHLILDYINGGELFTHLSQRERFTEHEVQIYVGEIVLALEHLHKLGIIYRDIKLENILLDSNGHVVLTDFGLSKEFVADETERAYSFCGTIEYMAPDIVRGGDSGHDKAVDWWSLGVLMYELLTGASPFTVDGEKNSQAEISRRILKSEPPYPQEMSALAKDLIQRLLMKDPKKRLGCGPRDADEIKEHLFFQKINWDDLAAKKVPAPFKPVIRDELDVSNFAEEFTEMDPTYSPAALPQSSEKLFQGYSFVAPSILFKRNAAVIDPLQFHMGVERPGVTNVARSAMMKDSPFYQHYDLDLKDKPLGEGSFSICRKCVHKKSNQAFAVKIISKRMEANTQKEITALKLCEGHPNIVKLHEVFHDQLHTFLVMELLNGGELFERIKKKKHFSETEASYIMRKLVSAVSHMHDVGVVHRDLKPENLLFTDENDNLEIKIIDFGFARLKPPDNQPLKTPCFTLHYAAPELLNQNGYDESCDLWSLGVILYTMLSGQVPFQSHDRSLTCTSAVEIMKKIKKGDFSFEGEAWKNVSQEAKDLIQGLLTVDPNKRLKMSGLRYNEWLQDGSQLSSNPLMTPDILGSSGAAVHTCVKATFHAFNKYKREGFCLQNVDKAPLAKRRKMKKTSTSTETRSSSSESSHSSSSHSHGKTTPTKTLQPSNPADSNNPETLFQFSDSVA
Assay: Inhibition of MSK1 at 30 uM by microfluidic mobility shift assay
VALUE_KIND: inhibition (%)

1: Cc1cc2c(c(N)nn2C)c(=O)[nH]1
2: COc1cccc(-c2cc3c(c(N)nn3C)c(=O)[nH]2)c1
3: Nc1n[nH]c2cc(-c3cccnc3)[nH]c(=O)c12
// rank above by inhibition: first = highest number Give your ranking as a list of the labels in the requested order.
3, 1, 2
(3: 36%, 1: 4%, 2: 2%)
